The following compounds are shown together with reported pIC50 values.
- target-desc: UniProt P49841
- measurement-description: GSK3b TR-FRET kinase assay
- Format: biochemical
- condition-set: 1 nM GSK3b, 2 μM ATP, 30 minute preincubation, Table 16; read-out: GSK3-B TR-FRET BIOCHEMICAL (TR-FRET); IC50
pIC50: −log10 of the molar value.

- compound: "CC[C@]1(c2cccc(-c3cnn4c3OCCC4)c2)C2=C(CC(C)(C)NC2=O)Nc2n[nH]cc21"
  pIC50: "6.00 to 7.00"
- compound: "CCN(C(C)=O)c1cccc(C2(CC)C3=C(CC(C)(C)CC3=O)Nc3n[nH]cc32)c1 (stereo not shown) [Compound 884109]"
  pIC50: "≥ 7.00"
- compound: "C[C@H]1CCC[C@@]12C1=C(CC(C)(C)CC1=O)Nc1n[nH]cc12"
  pIC50: "5.30 to 6.00"

Using known records, supply pIC50 for CCC1(c2cccc(N3CC(C)C(C)C3)c2)C2=C(CC(C)(C)CC2=O)Nc2n[nH]cc21 (stereo not shown) [Compound 924504] 6.00 to 7.00

* * *

The following molecules are shown together with reported IC50 values.
- target-desc: GSK3b (GST-full length GSK3b) (Homo sapiens (Human), UniProt P49841)
- Sequence (P49841 whole entry): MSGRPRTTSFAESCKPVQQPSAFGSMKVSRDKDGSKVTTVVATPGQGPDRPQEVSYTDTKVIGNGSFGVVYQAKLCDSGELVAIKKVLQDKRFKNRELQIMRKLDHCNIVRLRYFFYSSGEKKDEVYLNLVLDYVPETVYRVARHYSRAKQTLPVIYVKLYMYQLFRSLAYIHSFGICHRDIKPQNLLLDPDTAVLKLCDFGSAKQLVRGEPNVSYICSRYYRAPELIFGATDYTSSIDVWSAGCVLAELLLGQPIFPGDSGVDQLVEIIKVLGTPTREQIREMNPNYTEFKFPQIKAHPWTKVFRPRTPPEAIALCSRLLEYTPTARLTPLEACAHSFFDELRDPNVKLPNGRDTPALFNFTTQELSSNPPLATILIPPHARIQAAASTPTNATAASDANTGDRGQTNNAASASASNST
- measurement-description: GSK3b TR-FRET kinase assay
- Type: biochemical
- condition-set: read-out: GSK3-B (TR-FRET 1 mM ATP); GMean; IC50; 1 mM ATP; geometric mean

Would you please look over these solved cases?
- molecule: "CC[C@@]1(c2cccc(-c3c(F)cncc3OC)c2)C2=C(CC(C)(C)C2=O)Nc2n[nH]cc21 [Compound 952564]"
  IC50: "1 to 5 µM"
- molecule: "CC1(C)CC(=O)C2=C(C1)Nc1n[nH]c(C3CC(F)(F)C3)c1C21COc2ccccc21 (stereo not drawn) [Compound 127430]"
  IC50: "0.1 to 1 µM"
- molecule: "CC[C@]1(c2cccc(Oc3ncccn3)c2)C2=C(CC(C)(C)NC2=O)Nc2n[nH]c(C(F)(F)F)c21 [Compound 951607]"
  IC50: "0.1 to 1 µM"
- molecule: "CC1(C)CC(=O)C2=C(C1)Nc1n[nH]cc1C21COC2(CN(C(=O)C(C)(F)F)C2)C1 (stereo not drawn) [Compound 947275]"
  IC50: "0.1 to 1 µM"

Please look at CCC1(c2cccc(-c3ccncc3F)c2)C2=C(CC(C)(C)NC2=O)Nc2n[nH]c(F)c21 (stereo not drawn) [Compound 949651] and tell me its recorded IC50 on GSK3b (GST-full length GSK3b) (Homo sapiens (Human), UniProt P49841). > 5 µM

Please look at Cc1ccc(CC(=O)N2CC3(C2)CC2(CO3)C3=C(CC(C)(C)CC3=O)Nc3n[nH]cc32)cc1 (stereo not drawn) [Compound 947281] and tell me its recorded IC50 on GSK3b (GST-full length GSK3b) (Homo sapiens (Human), UniProt P49841). 0.1 to 1 µM

Please look at CC[C@]1(c2cccc(-c3cn(C)nc3C)c2)C2=C(CC(C)(C)NC2=O)Nc2n[nH]cc21 [Compound 945470] and tell me its recorded IC50 on GSK3b (GST-full length GSK3b) (Homo sapiens (Human), UniProt P49841). 1 to 5 µM

Please look at CCC1(c2cccc(-c3ccncc3)c2)C2=C(Nc3n[nH]cc31)C(F)C(C)(C)CC2=O (stereo not drawn) [Compound 959341] and tell me its recorded IC50 on GSK3b (GST-full length GSK3b) (Homo sapiens (Human), UniProt P49841). > 5 µM

Please look at CCC1(c2cccc(-c3cnn(C)c3)c2)C2=C(CC(C)(C)NC2=O)Nc2n[nH]c(C(F)F)c21 (stereo not drawn) [Compound 949171] and tell me its recorded IC50 on GSK3b (GST-full length GSK3b) (Homo sapiens (Human), UniProt P49841). 1 to 5 µM

Please look at CC1(C)CC(=O)C2=C(C1)Nc1n[nH]c(C3CC(F)(F)C3)c1C21COc2ccccc21 (stereo not drawn) [Compound 127429] and tell me its recorded IC50 on GSK3b (GST-full length GSK3b) (Homo sapiens (Human), UniProt P49841). 1 to 5 µM

Please look at CCC1(c2cccc(C(F)(F)F)c2)C2=C(CC(C)N(c3cnc(OC)nc3)C2=O)Nc2n[nH]cc21 (stereo not drawn) [Compound 949352] and tell me its recorded IC50 on GSK3b (GST-full length GSK3b) (Homo sapiens (Human), UniProt P49841). 1 to 5 µM

Please look at CCC1(c2cccc(C(F)(F)F)c2)C2=C(CC(C)(C)N(C)C2=O)Nc2n[nH]cc21 (stereo not drawn) [Compound 826790] and tell me its recorded IC50 on GSK3b (GST-full length GSK3b) (Homo sapiens (Human), UniProt P49841). 1 to 5 µM

Please look at CCN(c1cccc(C2(CC)C3=C(CC(C)(C)CC3=O)Nc3n[nH]cc32)c1)c1ncccn1 (stereo not drawn) [Compound 947333] and tell me its recorded IC50 on GSK3b (GST-full length GSK3b) (Homo sapiens (Human), UniProt P49841). 0.1 to 1 µM

Please look at CC[C@]1(c2cccc(-c3cc(C)ncc3OC)c2)C2=C(CC(C)(C)CC2=O)Nc2n[nH]cc21 [Compound 945995] and tell me its recorded IC50 on GSK3b (GST-full length GSK3b) (Homo sapiens (Human), UniProt P49841). 1 to 5 µM

Please look at CCC1(c2cccc(N3CCCCC3)c2)C2=C(CC(C)(C)NC2=O)Nc2n[nH]c(C(F)(F)F)c21 (stereo not drawn) [Compound 949183] and tell me its recorded IC50 on GSK3b (GST-full length GSK3b) (Homo sapiens (Human), UniProt P49841). 0.1 to 1 µM
